# inhibition in vivo at 50 mg/kg values compiled below
test system: Arachidonate-Induced Bronchospasm (cyclooxygenase); experiment: Pulmonary Mechanics Assay: arachidonate-induced bronchospasm without indomethacin (indicative of cyclooxygenase inhibition); assay type: in vivo, male Hartley guinea pigs; settings: Cavia porcellus, ID dosing, 50 mg/kg, guinea pig, read-out: Inhibition of Arachidonate-Induced Bronchospasm (ID Dosing), % Inh. without Indomethacin
Answer with a number only, understood to be in %.

1. CCCCCCCCCCCN(O)C(=O)N(C)C [Example 12, N,N-Dimethyl-N'-undecyl-N'-hydroxyurea]
-9
2. COc1ccc([C@@H]2C[C@H]2NC(=O)N(C)O)cc1OC (relative stereo)
43
3. CCCCCCCCCCCCCN(O)C(=O)N(C)C [Example 14, N,N-Dimethyl-N'-tridecyl-N'-hydroxyurea]
-128
4. C=CCOc1ccc(CCNC(=O)N(C)O)cc1OC
-68
5. COc1ccc(CCNC(=O)N(C)O)cc1O
77

Per the record, `COc1ccc(CCNC(=O)NO)cc1OC` has inhibition in vivo at 50 mg/kg of 50

Recorded inhibition in vivo at 50 mg/kg (compound CCCCCCCCCCN(O)C(=O)N(C)C [Example 11, N,N-Dimethyl-N'-decyl-N'-hydroxyurea] ): 36
